System: SF-539 CNS
Experiment: NCI tumour cell line growth inhibition, 48 h
observed.property: TGI

INSERT INTO measurements (molecule, observed_property, result) VALUES
  ('NS(=O)(=O)c1ccc(N=Nc2c(O)[nH]c3ccc(C(=O)NCc4ccncc4)cc23)cc1', 'TGI', '> 25 µM');

Data request: What does the record list as TGI for CC1(C)CC2(C)CC1CC2(O)c1ccccc1 (configuration not stated) ?
Data returned: > 100 µM

---

Reported TGI by item:
System: SF-539 CNS
Assay: NCI tumour cell line growth inhibition, 48 h

Some entries whose results are on file:
INSERT INTO results (molecule, result) VALUES
  ('O=C1C=C2CCC[C@H]3OC(=O)C[C@@]23CC1', '> 100 µM'),
  ('COC(=O)CCC12CCC(=O)C1[C@@H](C(=O)OC)C[C@H]2C(=O)OC (stereo not given in full)', '> 100 µM'),
  ('CCOC(=O)CCC1(C(=O)OCC)CCCC1=O (stereo not given)', '> 100 µM');

Data request: Please give the measured TGI for this molecule: NC(Cc1c[nH]c2cc([N+](=O)[O-])ccc12)C(=O)O (stereo not given)
Data returned: > 100 µM

Data request: Requested read-out: TGI. Entry: COc1ccc(NC(=O)/C=C(C)/C=C/C=C(C)/C=C/C2=C(C)CCCC2(C)C)cc1
Data returned: 6.15 µM

Source of measurements: PubChem BioAssay (NCI)
